experiment: Apparent permeability from apical to basolateral side in MDCK cells at 2 uM by LC-MS/MS analysis; type: ADME, cell-based, Canis lupus familiaris; conditions: dog
Property name: Papp A→B at 2 µM (×10⁻⁶ cm/s)

Chemical smiles | Assay value
O=C(O)c1ccc(-c2nc(C(=O)c3c(Cl)cccc3C(F)(F)F)n3ccccc23)cc1O | 12
O=C(O)c1ccc(-c2nc(C(=O)c3c(Cl)cccc3C3CC3)n3cccnc23)cc1O | 8

* * *

test: Volume of distribution in Sprague-Dawley rat at 0.5 mg/kg, iv; type: ADME, organism-based; conditions: in vivo

Chemical smiles | Vd (L/kg)
O=C(O)c1ccc(-c2nc(C(=O)c3c(Cl)cccc3C(F)(F)F)n3ccccc23)cc1O | 1.2

* * *

experiment: Cmax in Sprague-Dawley rat at […], po; format: ADME, organism-based; design: dose 1.5 mg/kg, route oral; details: in vivo

Chemical smiles | Cmax
O=C(O)c1ccc(-c2nc(C(=O)c3c(Cl)cccc3C(F)(F)F)n3ccccc23)cc1O | 70 nM

* * *

fraction unbound at 4 h, 5 µM values, listed per item
assay: Plasma protein binding in human at 5 uM after 4 hrs by equilibrium dialysis method; type: ADME, cell-free; conditions: read-out: PPB

Chemical smiles | Limit operator | fraction unbound at 4 h, 5 µM
O=C(O)c1ccc(-c2nc(C(=O)c3c(Cl)cccc3C3CC3)n3cccnc23)cc1O | = | 0.01
O=C(O)c1ccc(-c2nc(C(=O)c3c(Cl)cccc3C(F)(F)F)n3ccccc23)cc1O | < | 0.01

* * *

assay: AUC in Sprague-Dawley rat at […], po; assay type: ADME, organism-based; conditions: in vivo
Property name: AUC (µM·h)

Chemical smiles | Property name | Assay value
O=C(O)c1ccc(-c2nc(C(=O)c3c(Cl)cccc3C(F)(F)F)n3ccccc23)cc1O | AUC | 0.25

* * *

%max values, listed per item
system: PBMC; assay: Antiinflammatory activity in human PBMC assessed as inhibition of IL-17 production after 48 hrs by Sandwich ELISA relative to control; assay type: functional

Chemical smiles | Uom | %max
O=C(O)c1ccc(-c2nc(C(=O)c3c(Cl)cccc3C(F)(F)F)n3c2CCCC3)c(F)c1 | % | 64
O=C(O)c1ccc(-c2nc(C(=O)c3c(Cl)cccc3C(F)(F)F)n3ccccc23)cc1 | % | 69
O=C(O)c1ccc(-c2nc(C(=O)c3c(Cl)cccc3C3CC3)n3cccnc23)cc1O | % | 73
O=C(O)c1ccc(-c2nc(C(=O)c3c(Cl)cccc3C(F)(F)F)n3ccccc23)c(F)c1 | % | 63
O=C(O)c1ccc(-c2nc(C(=O)c3c(Cl)cccc3C(F)(F)F)n3ccccc23)cc1O | % | 70
O=C(O)c1ccc(-c2nc(C(=O)c3c(Cl)cccc3C3CC3)n3c2CCCC3)c(F)c1 | % | 72

* * *

test: Kinetic aqueous solubility of the compound in PBS buffer at 23 degC after 24 hrs by LC/CLND analysis; type: physicochemical; conditions: read-out: Kinetic_solubility

Chemical smiles | Uom | solubility kinetic at 24 h
O=C(O)c1ccc(-c2nc(C(=O)c3c(Cl)cccc3C3CC3)n3cccnc23)cc1O | µM | 45
O=C(O)c1ccc(-c2nc(C(=O)c3c(Cl)cccc3C(F)(F)F)n3ccccc23)cc1O | µM | 86

* * *

Papp B→A at 2 µM values, listed per item
test: Apparent permeability from basolateral to apical side in MDCK cells at 2 uM by LC-MS/MS analysis; assay type: ADME, cell-based, Canis lupus familiaris; settings: dog
Property name: Papp B→A at 2 µM (×10⁻⁶ cm/s)

Chemical smiles | Uom | Assay value
O=C(O)c1ccc(-c2nc(C(=O)c3c(Cl)cccc3C(F)(F)F)n3ccccc23)cc1O | ×10⁻⁶ cm/s | 10
O=C(O)c1ccc(-c2nc(C(=O)c3c(Cl)cccc3C3CC3)n3cccnc23)cc1O | ×10⁻⁶ cm/s | 15

* * *

molecular target: UniProtKB Q13133; assay: Antagonist activity at GAL4-fused human LXRalpha expressed in HEK293T cells assessed as inhibition of T0901317-induced basal transcriptional activity up to 10 uM after 20 hrs by dual-glo luciferase reporter gene assay; type: cell-based; conditions: HEK-293T
Sequence (Q13133 whole entry, the tested form may be a part): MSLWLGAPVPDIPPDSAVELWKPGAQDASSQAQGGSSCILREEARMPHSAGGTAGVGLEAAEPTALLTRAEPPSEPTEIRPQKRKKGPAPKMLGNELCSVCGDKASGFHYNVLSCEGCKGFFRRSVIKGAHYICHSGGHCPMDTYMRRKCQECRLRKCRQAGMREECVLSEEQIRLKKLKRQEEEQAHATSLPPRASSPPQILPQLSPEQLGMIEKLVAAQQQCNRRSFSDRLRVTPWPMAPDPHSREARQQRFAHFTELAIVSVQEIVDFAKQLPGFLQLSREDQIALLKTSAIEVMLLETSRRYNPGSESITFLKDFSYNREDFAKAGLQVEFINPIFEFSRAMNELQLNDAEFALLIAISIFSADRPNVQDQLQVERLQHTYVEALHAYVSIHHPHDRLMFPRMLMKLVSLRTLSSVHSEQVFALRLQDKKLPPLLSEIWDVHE
The source made the active and inactive calls. The rule behind the calls is not given here.
Property name: inhibition

Chemical smiles | Target of assay | Property name | Assay value
O=C(O)c1ccc(-c2nc(C(=O)c3c(Cl)cccc3C3CC3)n3c2CCCC3)c(F)c1 | UniProtKB Q13133 | inhibition | inactive
O=C(O)c1ccc(-c2nc(C(=O)c3c(Cl)cccc3C(F)(F)F)n3c2CCCC3)c(F)c1 | UniProtKB Q13133 | inhibition | inactive
O=C(O)c1ccc(-c2nc(C(=O)c3c(Cl)cccc3C3CC3)n3cccnc23)cc1O | UniProtKB Q13133 | inhibition | inactive
O=C(O)c1ccc(-c2nc(C(=O)c3c(Cl)cccc3C(F)(F)F)n3ccccc23)cc1 | UniProtKB Q13133 | inhibition | inactive
O=C(O)c1ccc(-c2nc(C(=O)c3c(Cl)cccc3C(F)(F)F)n3ccccc23)c(F)c1 | UniProtKB Q13133 | inhibition | inactive
O=C(O)c1ccc(-c2nc(C(=O)c3c(Cl)cccc3C(F)(F)F)n3ccccc23)cc1O | UniProtKB Q13133 | inhibition | inactive

* * *

test: Plasma clearance in Sprague-Dawley rat at 0.5 mg/kg, iv; assay type: ADME, organism-based
Property name: clearance (mL/min/kg)

Chemical smiles | Property name | Assay value
O=C(O)c1ccc(-c2nc(C(=O)c3c(Cl)cccc3C(F)(F)F)n3ccccc23)cc1O | clearance | 130

* * *

biological target: Nuclear receptor ROR-gamma (Homo sapiens, UniProt P51449); assay: Inverse agonist activity at N-terminal 6xHis-tagged human RORc ligand binding domain (241 to 486) expressed in bacterial expression system assessed as inhibition of SRC1 co-activator peptide recruitment after 3 hrs by TR-FRET analysis; assay type: functional
Sequence (P51449 whole entry, the tested form may be a part): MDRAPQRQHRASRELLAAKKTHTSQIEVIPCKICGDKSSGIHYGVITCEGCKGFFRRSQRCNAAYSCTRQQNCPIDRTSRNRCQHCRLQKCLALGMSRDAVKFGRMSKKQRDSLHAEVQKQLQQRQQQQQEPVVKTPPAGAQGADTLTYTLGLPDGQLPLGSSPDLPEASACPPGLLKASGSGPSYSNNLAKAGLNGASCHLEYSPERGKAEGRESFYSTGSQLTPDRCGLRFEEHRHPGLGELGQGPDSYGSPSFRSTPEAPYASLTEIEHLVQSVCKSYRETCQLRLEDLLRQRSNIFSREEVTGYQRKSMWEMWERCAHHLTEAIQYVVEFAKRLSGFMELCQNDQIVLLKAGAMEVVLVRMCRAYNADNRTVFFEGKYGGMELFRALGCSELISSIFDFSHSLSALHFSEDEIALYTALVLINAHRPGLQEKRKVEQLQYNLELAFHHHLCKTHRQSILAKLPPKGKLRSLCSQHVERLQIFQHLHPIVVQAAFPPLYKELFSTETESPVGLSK
pEC50: −log10 of the molar value.
Note to self: class labels come from recorded pEC50, ranges listed here: LOW: < 6; MEDIUM: ≥ 6 and < 7; HIGH: ≥ 7

Molecule | Target of assay | Cat
O=C(c1c(Cl)cccc1C(F)(F)F)c1nc(N2CC[C@H](C(=O)O)[C@@H](O)C2)c2ccccn12 (stereo in doubt) | Nuclear receptor ROR-gamma (Homo sapiens, UniProt P51449) | MEDIUM
O=C(c1c(Cl)cccc1C(F)(F)F)c1nc([C@H]2CC[C@@H](C(=O)O)CC2)c2ccccn12 | Nuclear receptor ROR-gamma (Homo sapiens, UniProt P51449) | LOW
O=C(O)c1ccc(-c2nc(C(=O)c3c(Cl)cccc3C(F)(F)F)n3c2CCCC3)c(F)c1 | Nuclear receptor ROR-gamma (Homo sapiens, UniProt P51449) | HIGH
O=C(O)c1ccc(-c2nc(C(=O)c3c(Cl)cccc3C3CC3)n3cccnc23)cc1O | Nuclear receptor ROR-gamma (Homo sapiens, UniProt P51449) | HIGH
O=C(c1c(Cl)cccc1C(F)(F)F)c1nc(N2CCC(O)(C(=O)O)CC2)c2ccccn12 | Nuclear receptor ROR-gamma (Homo sapiens, UniProt P51449) | LOW
O=C(O)c1ccc(-c2nc(C(=O)c3c(Cl)cccc3C(F)(F)F)n3c2CCCC3)cc1 | Nuclear receptor ROR-gamma (Homo sapiens, UniProt P51449) | HIGH
O=C(O)c1ccc(-c2nc(C(=O)c3c(F)cccc3Cl)n3c2CCCC3)c(F)c1 | Nuclear receptor ROR-gamma (Homo sapiens, UniProt P51449) | MEDIUM
N#Cc1cccc(C(F)(F)F)c1C(=O)c1nc(-c2ccc(C(=O)O)cc2F)c2n1CCCC2 | Nuclear receptor ROR-gamma (Homo sapiens, UniProt P51449) | MEDIUM
O=C(O)c1ccc(-n2nc(C(=O)c3c(Cl)cccc3C(F)(F)F)c3c2CCCC3)cc1 | Nuclear receptor ROR-gamma (Homo sapiens, UniProt P51449) | LOW
N#Cc1cccc(Cl)c1C(=O)c1nc(-c2ccc(C(=O)O)cc2F)c2n1CCCC2 | Nuclear receptor ROR-gamma (Homo sapiens, UniProt P51449) | MEDIUM
O=C(O)c1ccc(-c2nc(C(=O)c3c(Cl)cccc3C(F)(F)F)n3ccccc23)c(F)c1 | Nuclear receptor ROR-gamma (Homo sapiens, UniProt P51449) | HIGH
O=C(O)c1ccc(-c2nc(C(=O)c3c(Cl)cccc3C3CC3)n3c2CCCC3)c(F)c1 | Nuclear receptor ROR-gamma (Homo sapiens, UniProt P51449) | HIGH
COc1cccc(Cl)c1C(=O)c1nc(-c2ccc(C(=O)O)cc2F)c2n1CCCC2 | Nuclear receptor ROR-gamma (Homo sapiens, UniProt P51449) | MEDIUM
O=C(O)c1ccc(-c2cn3c(n2)C(c2c(Cl)cccc2C(F)(F)F)OCC3)cc1 (centres undefined) | Nuclear receptor ROR-gamma (Homo sapiens, UniProt P51449) | LOW
O=C(c1c(Cl)cccc1C(F)(F)F)c1nc(N2CCC(C(=O)O)CC2)c2ccccn12 | Nuclear receptor ROR-gamma (Homo sapiens, UniProt P51449) | MEDIUM
O=C(c1c(Cl)cccc1C(F)(F)F)c1nc([C@H]2CC[C@H](C(=O)O)CC2)c2ccccn12 | Nuclear receptor ROR-gamma (Homo sapiens, UniProt P51449) | MEDIUM
O=C(O)c1ccc(-c2nc(C(=O)c3c(Cl)cccc3C(F)(F)F)n3ccccc23)cc1O | Nuclear receptor ROR-gamma (Homo sapiens, UniProt P51449) | HIGH
O=C(O)c1ccc(-c2nc(C(=O)c3c(Cl)cccc3C(F)(F)F)n3ccncc23)cc1 | Nuclear receptor ROR-gamma (Homo sapiens, UniProt P51449) | LOW
